- RUN DESCRIPTION: Study A16 Part 1: PK of single ascending oral doses of fospropofol disodium (200 to 2000 mg), fasted healthy adults
- Type: in vivo, human
- SETTINGS: both sexes, human, plasma, po, 400 mg, Propofol Tmax, oral fospropofol disodium 400 mg; median
- From the text: Part 1 of Study A16 was a double-blind, randomized, placebo-controlled study to investigate the safety-tolerability and PK of oral administration of single ascending doses of fospropofol disodium to healthy adult male and female volunteers. Subjects were healthy adults (age 18-55 years inclusive, BMI 18-29.9 kg/m^2). […]
MEASURED METRIC: Tmax (min)

1) CC(C)c1cccc(C(C)C)c1O = 30

* * *

- RUN DESCRIPTION: Study A16 Part 1: PK of single ascending oral doses of fospropofol disodium (200 to 2000 mg), fasted healthy adults
- Type: in vivo, human
- SETTINGS: both sexes, human, plasma, po, 1000 mg, oral fospropofol disodium 1000 mg; mean; read-out: Fospropofol Cmax
- Description: Part 1 of Study A16 was a double-blind, randomized, placebo-controlled study to investigate the safety-tolerability and PK of oral administration of single ascending doses of fospropofol disodium to healthy adult male and female volunteers. Subjects were healthy adults (age 18-55 years inclusive, BMI 18-29.9 kg/m^2). […]
MEASURED METRIC: Cmax

1) CC(C)c1cccc(C(C)C)c1OCOP(=O)(O)O = 8240 ng/mL

* * *

- RUN DESCRIPTION: Study A16 Part 1: PK of single ascending oral doses of fospropofol disodium (200 to 2000 mg), fasted healthy adults
- Format: in vivo, human
- SETTINGS: both sexes, human, plasma; oral fospropofol disodium 1200 mg; mean; read-out: Fospropofol AUC0-T
MEASURED METRIC: AUC(0-t) (µg·h/mL)

1. CC(C)c1cccc(C(C)C)c1OCOP(=O)(O)O = 4.4

* * *

- RUN DESCRIPTION: Study No. 15-3 toxicokinetics of fospropofol and propofol in plasma
- Type: in vivo, Sprague-Dawley rats
- SETTINGS: female, Sprague-Dawley, rat, plasma, po, 50 mg/kg, oral gavage fospropofol disodium; Female; 50 mg/kg; Day 1; read-out: Fospropofol AUC0-6 hr
MEASURED METRIC: AUC(0-t) (ng·h/mL)

1) CC(C)c1cccc(C(C)C)c1OCOP(=O)(O)O [fospropofol] = 166

* * *

- RUN DESCRIPTION: Study A16 Part 1: PK of single ascending oral doses of fospropofol disodium (200 to 2000 mg), fasted healthy adults
- Type: in vivo, human
- SETTINGS: both sexes, human, plasma, po, 200 mg, Propofol Cmax, oral fospropofol disodium 200 mg; mean
MEASURED METRIC: Cmax (ng/mL)

1. CC(C)c1cccc(C(C)C)c1O = 69

* * *

- RUN DESCRIPTION: Study A16 Part 1: PK of single ascending oral doses of fospropofol disodium (200 to 2000 mg), fasted healthy adults
- Format: in vivo, human
- SETTINGS: both sexes, human, plasma, po, 800 mg, oral fospropofol disodium 800 mg; mean; read-out: Fospropofol Cmax
- Excerpt: Part 1 of Study A16 was a double-blind, randomized, placebo-controlled study to investigate the safety-tolerability and PK of oral administration of single ascending doses of fospropofol disodium to healthy adult male and female volunteers. Subjects were healthy adults (age 18-55 years inclusive, BMI 18-29.9 kg/m^2). […]
MEASURED METRIC: Cmax (µg/mL)

1) CC(C)c1cccc(C(C)C)c1OCOP(=O)(O)O = 6.04
